Source listed as PubChem BioAssay (NCI).

- System: MOLT-4 leukemia
- RUN_DESCRIPTION: NCI-60 one-dose screen, 48 h
- CONDITION_INFO: 10 µM unless noted
Compounds without any hit were thinned out: in the full panel of roughly 83,000, 20% have a hit. Activity calls are given as the source filed them. Rule for the calls: active = growth percent below 10; inactive = the rest.
A correct response names exactly one class from active, inactive

Recorded results for 5 compounds are shown here.
[
  {
    "COMPOUND": "C=CC(=O)Nc1cccc(Nc2nc(Nc3ccc(N4CCN(C(C)=O)CC4)cc3OC)ncc2C(F)(F)F)c1",
    "EXPERIMENTAL_SYSTEM": "MOLT-4 leukemia",
    "CATEGORY_LABEL": "inactive"
  },
  {
    "COMPOUND": "CC[C@H](Nc1ncnc2nc[nH]c12)c1nc2cccc(F)c2c(=O)n1-c1ccccc1",
    "EXPERIMENTAL_SYSTEM": "MOLT-4 leukemia",
    "CATEGORY_LABEL": "inactive"
  },
  {
    "COMPOUND": "CC1(O)CCC(Nc2cc(-c3ccc(C(F)(F)F)cc3)c(C#N)c3nc4ccccc4n23)CC1 (stereo not given)",
    "EXPERIMENTAL_SYSTEM": "MOLT-4 leukemia",
    "CATEGORY_LABEL": "inactive"
  },
  {
    "COMPOUND": "CCCCCCCC(=O)SCC/C=C/[C@@H]1CC(=O)NCc2nc(co2)C2=N[C@@](C)(CS2)C(=O)N[C@@H](C(C)C)C(=O)O1",
    "EXPERIMENTAL_SYSTEM": "MOLT-4 leukemia",
    "CATEGORY_LABEL": "active"
  },
  {
    "COMPOUND": "CC/C(=C(\\c1ccc(OCCN2CCCCCCC2)cc1)c1ccc(OC(=O)C2CCCCC2)cc1)c1ccc(Cl)cc1",
    "EXPERIMENTAL_SYSTEM": "MOLT-4 leukemia",
    "CATEGORY_LABEL": "inactive"
  }
]

Query block: Dear all, I need the recorded test outcome for Cc1ccc(Nc2nccc(N(C)c3ccc4c(C)n(C)nc4c3)n2)cc1S(N)(=O)=O , thank you.
Result block: active

Query block: Dear all, I need the recorded test outcome for C[C@@H](Oc1cc(C(=O)Nc2ccc(C(=O)N3CCN(C)CC3)cc2)nnc1N)c1c(Cl)ccc(F)c1Cl , thank you.
Result block: inactive
